Sourced from patent US6355799B1

Test system: velvetleaf (Abutilon theophrasti, ABUTH)
Test: Pre-emerge test, greenhouse herbicide activity screening
Type: in vivo
Conditions: pre-emerge, 63 g ai/ha, 14 days after application, rating scale 0-100
measurementLabel: phytotoxicity rating ABUTH

compound: COc1c(Cl)cc(F)c(-n2c(=O)cc(C(F)(F)F)n(C)c2=O)c1NNC(=O)Nc1ccc(F)cc1F
measuredTarget: velvetleaf (Abutilon theophrasti, ABUTH)
numericReadout: 40
--
compound: Cn1c(C(F)(F)F)cc(=O)n(-c2ccc(Cl)cc2/C=C/c2ccc3ccccc3c2)c1=O
measuredTarget: velvetleaf (Abutilon theophrasti, ABUTH)
numericReadout: 0
--
compound: CCOC(=O)C(Cl)Cc1cc(Cl)cc(F)c1-n1nc(C)n(C(F)F)c1=O (stereo not drawn)
measuredTarget: velvetleaf (Abutilon theophrasti, ABUTH)
numericReadout: 70

---

System: field corn (Zea mays L., var. Dekalb 535, CORN)
Assay: Pre-emerge test, crop safety
Format: in vivo
Conditions: 63 g ai/ha; pre-emerge; rated 14 days after application; 0 = no damage, 100 = complete death
# Pre-emerge crop damage CORN (phytotoxicity rating, scale 0-100) values compiled below
measurementLabel: Pre-emerge crop damage CORN (phytotoxicity rating, scale 0-100)

compound: COc1c(Cl)cc(F)c(-n2c(=O)cc(C(F)(F)F)n(C)c2=O)c1N(C(=O)C1CC1)C(=O)C1CC1
numericReadout: 0
//
compound: C#CCOc1c(Cl)cc(F)c(-n2c(=O)cc(C(F)(F)F)n(C)c2=O)c1N
numericReadout: 50
//
compound: CCOC(=O)C(C)Oc1c(Cl)cc(F)c(-n2c(=O)cc(C(F)(F)F)n(C)c2=O)c1N (stereo not drawn)
numericReadout: 50
//
compound: C=C(C)C(=O)Nc1c(OC)c(Cl)cc(F)c1-n1c(=O)cc(C(F)(F)F)n(C)c1=O
numericReadout: 10
//
compound: COC(=O)C=CCOc1c(Cl)cc(F)c(-n2c(=O)cc(C(F)(F)F)n(C)c2=O)c1N
numericReadout: 15
//
compound: COc1c(Cl)cc(F)c(-n2c(=O)cc(C(F)(F)F)n(C)c2=O)c1N=CN(C)C
numericReadout: 0
//
compound: COc1c(Cl)cc(F)c(-n2c(=O)c([N+](=O)[O-])c(C(F)(F)F)n(C)c2=O)c1[N+](=O)[O-]
numericReadout: 90
//
compound: COC(=O)C(=O)Nc1c(OC)c(Cl)cc(F)c1-n1c(=O)cc(C(F)(F)F)n(C)c1=O
numericReadout: 0
//
compound: COc1c(Cl)cc(F)c(-n2c(=O)cc(C(F)(F)F)n(C)c2=O)c1NC(=O)C(F)(F)F
numericReadout: 0

---

System: velvetleaf (Abutilon theophrasti, ABUTH)
Assay: Post-emerge test, greenhouse herbicide activity screening
Assay type: in vivo
Conditions: post-emerge, 250 g ai/ha, 14 days after application, rating scale 0-100

structureString: COc1c(Cl)cc(F)c(-n2c(=O)cc(C(F)(F)F)n(C)c2=O)c1NC(=O)COc1ccc(F)cc1
ABUTH phytotoxicity rating: 100
//
structureString: COc1c(Cl)cc(F)c(-n2c(=O)cc(C(F)(F)F)n(C)c2=O)c1NC(=O)CSC
ABUTH phytotoxicity rating: 100
//
structureString: COc1c(Cl)cc(F)c(-n2c(=O)cc(C(F)(F)F)n(C)c2=O)c1NC(=O)CSc1ccc2ccccc2c1
ABUTH phytotoxicity rating: 80
//
structureString: COc1c(Cl)cc(F)c(-n2c(=O)cc(C(F)(F)F)n(C)c2=O)c1NC(=O)C=Cc1ccccc1F
ABUTH phytotoxicity rating: 100
//
structureString: Cn1c(C(F)(F)F)cc(=O)n(-c2ccc(C#N)cc2NC(=O)C=Cc2ccccc2)c1=O
ABUTH phytotoxicity rating: 100
//
structureString: CCSCC(=O)Nc1c(OC)c(Cl)cc(F)c1-n1c(=O)cc(C(F)(F)F)n(C)c1=O
ABUTH phytotoxicity rating: 100
//
structureString: CCOC(=O)CSCC(=O)Nc1c(OC)c(Cl)cc(F)c1-n1c(=O)cc(C(F)(F)F)n(C)c1=O
ABUTH phytotoxicity rating: 90
